- PROTOCOL SUMMARY: melting temperature; fluorescence melt of hairpins on a sequencing array, two-state fit, raised by 9.35 °C to match UV melts
- CONDITIONS USED: sodium 0.088 M
Tm overview
Provide a numeric answer, followed by its unit.

Check out these entries, answers already filled in.
{"CHAIN SEQUENCE": "GGCAGTGGAAACGTTGCC ((((..(....)..))))", "MEASURED": "49.1 °C"}
{"CHAIN SEQUENCE": "GCTATTCGAAAGAAGAGC (((.(((....))).)))", "MEASURED": "51.1 °C"}
{"CHAIN SEQUENCE": "GCGAGTGGAAACGCTTGC ((.((.(....).)).))", "MEASURED": "48.6 °C"}
{"CHAIN SEQUENCE": "GCACCGGGAAACCAGTGC ((((.((....)).))))", "MEASURED": "49.4 °C"}

Which value of Tm has been reported for GTAGCCGGAAACGGTTAC (((.(((....))).))) in the records?
51.3 °C

Could you share which Tm value was measured for GGAGGACGAAAGTCTCC (((.(((....)))))) ?
50.5 °C

I have this sequence here, GATCGAAACATCGATC ((((((....)))))) , and I need its recorded Tm.
50 °C

Endpoint output: Tm of GGTAGACGAAAGTCACC (((.(((....)))))) . Value?
50.8 °C

Any idea what its Tm is? The sequence is GATCGACGTTCGATC ((((((...))))))
50 °C

// query Tm value for entry GCCAGCGAAAGCTACGGC ((((((....)))..)))
49.8 °C

Return reported Tm; argument: GTCTAGCGAAAGCTCGAC (((.(((....))).)))
50 °C

----------
- PROTOCOL SUMMARY: folding enthalpy; higher = less favourable; fluorescence melt of hairpins on a sequencing array, two-state fit
- CONDITIONS USED: sodium 0.088 M
Values of folding enthalpy greater than or equal to -100 kJ/mol map to yes; values below map to no.

Please review the entries below; each comes with its answer.
{"CHAIN SEQUENCE": "GTCGATGGAAACATCGAC (((((((....)))))))", "LABEL CLASS": "no"}
{"CHAIN SEQUENCE": "CGCCCGGAAACGGTTGCG ((((((....)))..)))", "LABEL CLASS": "no"}
{"CHAIN SEQUENCE": "GATACTGGAAACAGCATC (((.(((....))).)))", "LABEL CLASS": "no"}

Dear colleague, could you confirm whether GAGATGGAAACATCTC ((((((....)))))) has folding enthalpy at or above -100 kJ/mol?
no

Given the entry GTTGTCGAAAGACCAAC ((((((....))).))) , answer whether its folding enthalpy meets or surpasses -100 kJ/mol.
yes

Does the sequence GCGACGGGAAACCGTTGC ((.((((....)))).)) have recorded folding enthalpy that is -100 kJ/mol or more?
no

Determine whether measured folding enthalpy meets or exceeds -100 kJ/mol for GATCGTCATGACGATC ((((((....))))))
no

Threshold query (folding enthalpy >= -100 kJ/mol) on GGAGAAGGAAACTTCTTC (.(((((....))))).)
yes

For this sequence, is measured folding enthalpy -100 kJ/mol or higher? GGAGACGGAAACGCCTCC ((((.((....)).))))
no
